The values you see were collected from BigSolDB 2.1.

conditions: in water, 318.15 K
measured endpoint: solubility (mole fraction)

query: solubility (mole fraction) lookup needed for CO/N=C1\C[C@]2(C[C@@H]3C[C@@H](C/C=C(\C)C[C@@H](C)/C=C/C=C4\CO[C@@H]5[C@H](O)C(C)=C[C@@H](C(=O)O3)[C@]45O)O2)O[C@H](/C(C)=C/C(C)C)[C@H]1C , thanks.
result: 2.14e-05

====

settings: in methanol, 318.15 K
measured endpoint: solubility (mole fraction)
// return just the number, without any unit appended

query: Quick one: solubility (mole fraction) of CO/N=C1\C[C@]2(C[C@@H]3C[C@@H](C/C=C(\C)C[C@@H](C)/C=C/C=C4\CO[C@@H]5[C@H](O)C(C)=C[C@@H](C(=O)O3)[C@]45O)O2)O[C@H](/C(C)=C/C(C)C)[C@H]1C ?
result: 0.0927

====

conditions: in isopropanol, 308.15 K
measured endpoint: solubility (mole fraction)
Response field accepts a number only; no unit should be typed.

query: Could you share which solubility (mole fraction) value was measured for CO/N=C1\C[C@]2(C[C@@H]3C[C@@H](C/C=C(\C)C[C@@H](C)/C=C/C=C4\CO[C@@H]5[C@H](O)C(C)=C[C@@H](C(=O)O3)[C@]45O)O2)O[C@H](/C(C)=C/C(C)C)[C@H]1C ?
result: 0.0296
